Where do these numbers come from? They come from the Human Domainome abundance scans (Beltran et al. 2025).

B1: DNA topoisomerase 3-alpha, residues 812 to 851; numbered along this chain, Q13472 (parent)
chain: TCNCGQEAVLLTVRKEGPNRGRQFFKCNGGSCNFFLWADS

Variants of: B1
Experiment: abundance fitness (aPCA) (normalised: wild type 0, dead -1); higher = more abundant; growth selection in yeast, the domain comes from the species named
Conditions: Homo sapiens
// label = yes (1) if abundance fitness is not less than -0.09, otherwise no (0)

The examples below pair each entry with its known result.
Change	Group
N19R	no (0)
R22L	no (0)
L10R	no (0)
G17I	no (0)
G21A	no (0)
L10V	no (0)
R14T	yes (1)
N33T	yes (1)

Next up:
Lookup: Please indicate if the recorded abundance fitness for N33A meets or exceeds -0.09.
Found: no (0)
